Reported Ki values for a set of molecules
target: recombinant RORγ Ligand Binding Domain (LBD) protein (Homo sapiens, UniProt P51449); construct: 6×His; GST; test: Radio-Ligand RORγ Binding Assay (Assay 1); conditions: radio-ligand competition, RORγ LBD; head without unit (Tables 15, 17); read-out: Avg ROR Bind Ki
Sequence (P51449 269-508 limits assumed): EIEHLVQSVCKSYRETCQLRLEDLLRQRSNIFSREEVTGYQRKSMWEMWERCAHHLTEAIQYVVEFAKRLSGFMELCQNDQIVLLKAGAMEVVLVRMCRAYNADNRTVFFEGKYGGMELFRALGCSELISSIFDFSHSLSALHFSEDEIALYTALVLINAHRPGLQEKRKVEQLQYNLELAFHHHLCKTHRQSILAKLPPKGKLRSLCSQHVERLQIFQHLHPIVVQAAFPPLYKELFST
measured.endpoint: Ki

molecule	assay.result
CCS(=O)(=O)c1ccc(CNC(=O)c2cnc3c(c2)CCN(C[C@H]2CC[C@H](C(F)(F)F)CC2)[C@H]3C(C)C)nc1 (single isomer, unassigned) [Hy2B-10.1]	100 to 1000 nM
CCS(=O)(=O)c1ccc(CNC(=O)c2cnc3c(c2)CCN(c2ncc(Cl)cn2)[C@@H]3C(C)C)cc1 (single isomer, unassigned) [Hy2B-2.2]	> 1000 nM
CCOC(=O)c1cnc(N2CCc3cc(C(=O)NCc4ccc(S(=O)(=O)CC)cc4)cnc3[C@@H]2C(C)C)nc1 (single isomer, unassigned) [Hy2B-4.2]	> 1000 nM
CCS(=O)(=O)c1ccc([C@H](CO)NC(=O)c2cc3ccnc(OC[C@H]4CC[C@H](C(F)(F)F)CC4)c3n2C)cc1 [Hy4-2]	< 100 nM
CCOC(=O)c1cnc(N2CCc3cc(C(=O)NCc4ccc(S(=O)(=O)CC)cc4)cnc3[C@@H]2C(C)C)nc1C(F)(F)F (single isomer, unassigned) [Hy2B-5.2]	100 to 1000 nM
CCS(=O)(=O)c1ccc(CNC(=O)c2cnc3c(c2)CCN(c2ncc(C(F)(F)F)cn2)[C@@H]3C(C)C)cc1 (single isomer, unassigned) [Hy2B-3.2]	100 to 1000 nM
CCS(=O)(=O)c1ccc(CNC(=O)c2cnc3c(c2)CCN(Cc2ccc(F)cc2)C3C(C)C)cc1 (single isomer, unassigned) [Hy2B-6.1]	< 100 nM
